protocol: Short-term stability in spiked pooled human plasma (bench-top, 4 °C, 56 °C)
assayContext: validation standard ULOV
Property: Short-time stability (1h, 56°C) Accuracy [%]; scope: individual molecules
observable: Short-time stability (1h, 56°C) Accuracy [%]

                                    molecule  result
 0  COc1cc2c(Nc3ccc(Br)cc3F)ncnc2cc1OCC1CCN(C)CC1 [Vandetanib]   41.3%
 1  CCCS(=O)(=O)Nc1ccc(F)c(C(=O)c2c[nH]c3ncc(-c4ccc(Cl)cc4)cc23)c1F [Vemurafenib]   34.6%
 2  Cc1c(C(=O)Nc2ccc(N3C[C@@H](C)O[C@@H](C)C3)nc2)cccc1-c1ccc(OC(F)(F)F)cc1 [Sonidegib]   40.1%
 3  C[C@H]1Oc2cc(cnc2N)-c2c(nn(C)c2C#N)CN(C)C(=O)c2ccc(F)cc21 [Lorlatinib]   50.7%
 4  Nc1cccc2c1CN(C1CCC(=O)NC1=O)C2=O (centres unmarked) [Lenalidomide]   18.5%
 5  O=c1[nH]c(=O)n([C@H]2C[C@H](O)[C@@H](CO)O2)cc1C(F)(F)F [Trifluridine]   23.2%
 6  O=C(c1cc(Cc2n[nH]c(=O)c3ccccc23)ccc1F)N1CCN(C(=O)C2CC2)CC1 [Olaparib]   42.9%
 7  CN(C)C(=O)c1cc2cnc(Nc3ccc(N4CCNCC4)cn3)nc2n1C1CCCC1 [Ribociclib]   41.5%
 8  CNC(=O)c1cc(Oc2ccc(NC(=O)Nc3ccc(Cl)c(C(F)(F)F)c3)c(F)c2)ccn1 [Regorafenib]   35.4%
 9  Cc1[nH]c2ccccc2c1CCNCc1ccc(/C=C/C(=O)NO)cc1 [Panobinostat]   46.3%
10  N#CC[C@H](C1CCCC1)n1cc(-c2ncnc3[nH]ccc23)cn1 [Ruxolitinib]   53.0%
11  O=C(c1ccc(F)c(F)c1Nc1ccc(I)cc1F)N1CC(O)([C@@H]2CCCCN2)C1 [Cobimetinib]   41.3%
12  Cc1ccc(C(=O)Nc2ccc(CN3CCN(C)CC3)c(C(F)(F)F)c2)cc1C#Cc1cnc2cccnn12 [Ponatinib]   43.1%
13  COc1cc(N2CCC(N3CCN(C)CC3)CC2)ccc1Nc1ncc(Cl)c(Nc2ccccc2P(C)(C)=O)n1 [Brigatinib]   35.7%
